molecular target: EBOV Mayinga (GenBank: NC_002549) (Zaire Ebolavirus (EBOV Mayinga)) (UniProt Q05320); experiment: cell-based or functional assay
attribute_measured: neutralization concentration (GMC, CPE reduction on Vero C1008 cells) (µg/mL)

binder: 3T0478 (antibody, V domains shown) VH: VQLLQESGPGLVKPSETLSLTCTVSGGSISSYYWNWIRQSPGKGLEWMGYIYYTGSTNYNPSLKSRVTISVDLSKNQFSLKLRSVTAADTAVYYCARDKRYYDSSGYSHFDYWGQGILVTVSS VL: QSVLTQPPSASGTPGQRVTIFCSGSSFNIGSNYVYWYQQLPGTAPKLLIYRNNERPSGVPDRFSGSKSGTSASLDISGLRSEDEADYSCAAWDGSLSGPVFGGGTKLTVL
assay_result: 0.78
--
binder: 3T0468 (antibody, V domains shown) VH: EVQLVESGGHLIQPGGSLRLSCAASGFTFRIYDMHWVRQGRRKGLEWVSAIGAAGDTYYSDSVKGRFTISRENAKSSLYLQMNSLSVGDTAVYYCARAAFGAVYYDNWGQGILVTVSS VL: EIVLTQSPGTLSLSPGERATLSCRASENVDSRFLVWYQQKVGQAPRLLIYGASRRATGIPDRFSGSGSGTDFALTISRLEPEDLAVYYCQQYGRSPITFGQGTRLEIK
assay_result: 2.1
--
binder: 3T0265 (antibody, V domains shown) VH: EVQLVESGGNLAKPGGSLRLSCAASGFTFSDAWMTWVRQAPGKGLEWVGRIKSNADGGATEYAAPVRGRFTISRDDSRSSLFLQMNSLKTEDTAVYYCLTPPPRRYWGQGILVTVSS VL: QSVLTQPPSVSGAPGQRVAISCTGSYSNIGAGYDVHWYQQFPGAAPKLLIYAYTNRPAGVPDRFSGSKSGSSASLVISGLQADDEADYYCQSYDARLRDGEVFGGGTKLTV
assay_result: 0.44
